Entries with reported pIC50 on UniProtKB P28074
pIC50: −log10 of the molar value. Non-standard residues stand in square brackets, D forms with d. Residues, ends and D or L forms follow the SMILES beside them. ξ: configuration not given here. *: point of attachment. ξF = NC(Cc1ccccc1)C(=O)O; Cbz = O=C(OCc1ccccc1)*; CH2Cl = ClC*

{"compound": "CC(C)C[C@H](NC(=O)[C@H](Cc1ccccc1)NC(=O)c1cnccn1)C(=O)CCl", "result-value": "< 3.30"}
{"compound": "CC(C)C[C@H](NC(=O)CNC(=O)OCc1ccccc1)C(=O)NC(Cc1ccccc1)C(=O)CCl (stereo partly drawn) [Z-GLF-CMK] (Cbz-Gly-Leu-[ξF]-CH2Cl)", "result-value": "< 3.30"}

Please turn your attention to the following entry.
Quick one: pIC50 for O=C(CNC(=O)OCc1ccccc1)NCC(=O)NC(Cc1ccccc1)C(=O)CCl (stereo not drawn) [Z-GGF-CMK] (Cbz-Gly-Gly-[ξF]-CH2Cl) ? < 3.30

====

Test: in vitro
Conditions: human
quantity-name: selectivity ratio

Entry CC(C)C[C@H](NC(=O)[C@H](Cc1ccccc1)NC(=O)c1cnccn1)C(=O)CCl : reported selectivity ratio = ? ≥ 20

====

Entries and their IC50 values follow.
Target: ClpP1P2 (Mycobacterium bovis, UniProt P0A527+P63784)
Experiment: cell-based
Conditions: 24 h; read-out: Bacterial Clp IC50
Non-standard residues stand in square brackets, D forms with d. Residues, ends and D or L forms follow the SMILES beside them. ξ: configuration not given here. *: point of attachment. ξF = NC(Cc1ccccc1)C(=O)O; Cbz = O=C(OCc1ccccc1)*; CH2Cl = ClC*
Express the result in µM but write the number alone.

These solved cases illustrate the format of a correct answer.
{"molecule": "CC(C)C[C@H](NC(=O)CNC(=O)OCc1ccccc1)C(=O)NC(Cc1ccccc1)C(=O)CCl (stereo partly drawn) [Z-GLF-CMK] (Cbz-Gly-Leu-[ξF]-CH2Cl)", "quantity-name": "IC50", "result-value": 25}
{"molecule": "O=C(CNC(=O)OCc1ccccc1)NCC(=O)NC(Cc1ccccc1)C(=O)CCl (stereo not drawn) [Z-GGF-CMK] (Cbz-Gly-Gly-[ξF]-CH2Cl)", "quantity-name": "IC50", "result-value": 50}
{"molecule": "CC(C)C[C@H](NC(=O)[C@H](Cc1ccccc1)NC(=O)c1cnccn1)B(O)O [Pyr-FL-BA]", "quantity-name": "IC50", "result-value": 1.6}

Kindly review the next molecule as well.
Name the reported IC50 value associated with the molecule CC(C)C[C@H](NC(=O)[C@H](Cc1ccccc1)NC(=O)c1cnccn1)C(=O)CCl [Pyr-FL-CMK] 25

====

This section presents molecules with their documented IC50 values.
Biological target: bacterial proteasome (Mycobacterium bovis, UniProt A1KKF3)
Sequence (A1KKF3 whole entry, looked up): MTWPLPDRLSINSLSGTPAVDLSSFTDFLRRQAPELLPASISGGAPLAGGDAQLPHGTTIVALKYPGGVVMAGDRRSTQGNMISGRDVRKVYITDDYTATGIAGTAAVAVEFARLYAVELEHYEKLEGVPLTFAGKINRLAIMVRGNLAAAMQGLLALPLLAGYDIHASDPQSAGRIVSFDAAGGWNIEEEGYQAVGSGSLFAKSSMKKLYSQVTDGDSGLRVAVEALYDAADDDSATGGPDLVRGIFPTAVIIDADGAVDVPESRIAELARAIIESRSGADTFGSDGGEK
Non-standard residues stand in square brackets, D forms with d. Residues, ends and D or L forms follow the SMILES beside them. ξ: configuration not given here. *: point of attachment. ξF = NC(Cc1ccccc1)C(=O)O; Cbz = O=C(OCc1ccccc1)*; CH2Cl = ClC*
Record the value in µM, omitting the unit from your answer.

{"molecule": "O=C(CNC(=O)OCc1ccccc1)NCC(=O)NC(Cc1ccccc1)C(=O)CCl (stereo not drawn) [Z-GGF-CMK] (Cbz-Gly-Gly-[ξF]-CH2Cl)", "IC50 [µM]": 50}
{"molecule": "CC(C)C[C@H](NC(=O)CNC(=O)OCc1ccccc1)C(=O)NC(Cc1ccccc1)C(=O)CCl (stereo partly drawn) [Z-GLF-CMK] (Cbz-Gly-Leu-[ξF]-CH2Cl)", "IC50 [µM]": 35}
{"molecule": "CC(C)C[C@H](NC(=O)[C@H](Cc1ccccc1)NC(=O)c1cnccn1)B(O)O", "IC50 [µM]": 0.8}

Endpoint output: IC50 of CC(C)C[C@H](NC(=O)[C@H](Cc1ccccc1)NC(=O)c1cnccn1)C(=O)CCl . Value? 25

====

Entries and their MIC50
System: M. bovis BCG
Assay: organism not typed
Assay type: cell-based
Settings: 120 h, read-out: M. bovis MIC50
Non-standard residues stand in square brackets, D forms with d. Residues, ends and D or L forms follow the SMILES beside them. ξ: configuration not given here. *: point of attachment. ξF = NC(Cc1ccccc1)C(=O)O; Cbz = O=C(OCc1ccccc1)*; CH2Cl = ClC*
Unit µM implied. Number only.

{"molecule": "CC(C)C[C@H](NC(=O)CNC(=O)OCc1ccccc1)C(=O)NC(Cc1ccccc1)C(=O)CCl (stereo partly drawn) [Z-GLF-CMK] (Cbz-Gly-Leu-[ξF]-CH2Cl)", "test-system": "M. bovis BCG", "unit-annotation": "µM", "MIC50": 20}
{"molecule": "CC(C)C[C@H](NC(=O)[C@H](Cc1ccccc1)NC(=O)c1cnccn1)B(O)O [Pyr-FL-BA]", "test-system": "M. bovis BCG", "unit-annotation": "µM", "MIC50": 0.8}
{"molecule": "O=C(CNC(=O)OCc1ccccc1)NCC(=O)NC(Cc1ccccc1)C(=O)CCl (stereo not drawn) [Z-GGF-CMK] (Cbz-Gly-Gly-[ξF]-CH2Cl)", "test-system": "M. bovis BCG", "unit-annotation": "µM", "MIC50": 30}

Query molecule follows.
What measured MIC50 goes with CC(C)C[C@H](NC(=O)[C@H](Cc1ccccc1)NC(=O)c1cnccn1)C(=O)CCl [Pyr-FL-CMK] ? 20
